biological target: TNK1; test: pooled miR-30 sensor sort-seq; sequence = guide strand; settings: shRNA; note: reference of the scale not given here
Assignment: determine reported sensor-assay potency score (higher = more potent) for the given sequences.
Answer field: number only, no words.

sequence TACAAAGTCGAAGTGCTCTGGC , sensor-assay potency score (higher = more potent) observed: 0.534

sequence TAGTGGGCAGACTAGATCCTTC , sensor-assay potency score (higher = more potent) observed: -0.841

sequence TAGTGCTGTCTGGCACTCCTGG , sensor-assay potency score (higher = more potent) observed: -1.01

sequence TCTCATAATCCATACTACCAGC , sensor-assay potency score (higher = more potent) observed: -1.03

sequence TTTCTGTCTCCATCTATGCTTC , sensor-assay potency score (higher = more potent) observed: -0.886

* * *

biological target: FAM151A; assay: pooled miR-30 sensor sort-seq; sequence = guide strand; details: shRNA
Kind request: treat -0.4 as inclusive, so sensor-assay potency score (higher = more potent) at -0.4 or higher is Y, anything lower is N.

// query Would you say TACATTGACGTCAGCCTCCAGG shows sensor-assay potency score (higher = more potent) at minimum -0.4?
// result Y

// query Would you say TAAGATGTCAGCGTTGATCCAT shows sensor-assay potency score (higher = more potent) at minimum -0.4?
// result Y

// query Would you say TTCCTCTGTCAGCTGCCGCAGG shows sensor-assay potency score (higher = more potent) at minimum -0.4?
// result N

// query Would you say TAGCCTGTAGTAGACTCGGGTC shows sensor-assay potency score (higher = more potent) at minimum -0.4?
// result Y

// query Would you say TGTCATAGTAGACTTGGTGGAC shows sensor-assay potency score (higher = more potent) at minimum -0.4?
// result Y

// query Would you say TAGCATATCTGTGAGCAGCTGT shows sensor-assay potency score (higher = more potent) at minimum -0.4?
// result Y

* * *

molecular target: VDAC1; assay: pooled miR-30 sensor sort-seq; sequence = guide strand; settings: shRNA
Attribute Measured: sensor-assay potency score (higher = more potent)

Entry TTTTGTTTTCAAATCAAGCTTT , VDAC1 data, sensor-assay potency score (higher = more potent) value: -0.155

Entry TAGGTGAGAAGGATGAATCGAA , VDAC1 data, sensor-assay potency score (higher = more potent) value: 0.744

Entry TTTGTTTTCAAATCAAGCTTTA , VDAC1 data, sensor-assay potency score (higher = more potent) value: -0.535

Entry TAGTGTATTGTCGGTATTCCAT , VDAC1 data, sensor-assay potency score (higher = more potent) value: -0.621

Entry TTCTCTGTAAACGTCAGGCCGT , VDAC1 data, sensor-assay potency score (higher = more potent) value: -0.7

Entry TTCACTTTAGCCGAGAAGCAGG , VDAC1 data, sensor-assay potency score (higher = more potent) value: -0.473

Entry TTACTGTTTCCTGCTGTCCAGG , VDAC1 data, sensor-assay potency score (higher = more potent) value: -1.19

Entry TTAGAGTCTGAGTGTATCCTAA , VDAC1 data, sensor-assay potency score (higher = more potent) value: -0.253

Entry TATCCTAAACCTATCAGGCTGG , VDAC1 data, sensor-assay potency score (higher = more potent) value: -0.545

* * *

Assignment: determine reported sensor-assay potency score (higher = more potent) for the given sequences.
biological target: C5orf56; assay: pooled miR-30 sensor sort-seq; sequence = guide strand; settings: shRNA
Answer field: number only, no words.

sequence TTGAAGATTCCCTTGGTGTGTT , sensor-assay potency score (higher = more potent) observed: 0.717

sequence TTCACTGCTGCATTGCTGCCAT , sensor-assay potency score (higher = more potent) observed: -0.146

sequence TTCTTTCCAGAATCTTGGCTGT , sensor-assay potency score (higher = more potent) observed: 0.101

sequence AATCTTGGCTGTAAGCAGCAGA , sensor-assay potency score (higher = more potent) observed: -0.53

sequence AAAGGAGACATTTCTTTCCAGA , sensor-assay potency score (higher = more potent) observed: -0.416

sequence TCCAATAGGCTACAAACTCTGG , sensor-assay potency score (higher = more potent) observed: -1.19

sequence TTGTTCACTGCTGCATTGCTGC , sensor-assay potency score (higher = more potent) observed: -0.868

sequence TTGATGACGAGGAAAAAGGAGA , sensor-assay potency score (higher = more potent) observed: -0.938

sequence TTTCTTTCCAGAATCTTGGCTG , sensor-assay potency score (higher = more potent) observed: 0.311

sequence AACACTTGCTGAATAAATGAGT , sensor-assay potency score (higher = more potent) observed: -0.962
